# assayed_target: GPR43 (Homo sapiens)
# Construct: expressed in transfected cells
# Sequence (O15552 1-330): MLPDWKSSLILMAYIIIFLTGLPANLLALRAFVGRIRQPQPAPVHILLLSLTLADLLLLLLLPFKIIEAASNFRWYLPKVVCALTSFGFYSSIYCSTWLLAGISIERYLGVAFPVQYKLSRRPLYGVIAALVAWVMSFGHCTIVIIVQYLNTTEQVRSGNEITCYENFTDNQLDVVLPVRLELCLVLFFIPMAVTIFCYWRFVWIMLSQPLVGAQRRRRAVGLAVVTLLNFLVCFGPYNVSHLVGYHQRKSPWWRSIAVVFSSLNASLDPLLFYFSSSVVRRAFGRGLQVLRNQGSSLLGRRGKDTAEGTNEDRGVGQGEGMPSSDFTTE
# measurement_protocol: Calcium mobilization assay with probenecid
# Assay type: cell-based
# condition_set: GPR43 stably expressing cells; triggered with sodium acetate at EC80; 2.5 mM probenecid; read-out: GPR43 assay with probenicid IC50
assay_metric: IC50

Please review the following examples before continuing.
> print(dat)
                                   molecule           value
1  CC1(C(=O)N(CCCS(N)(=O)=O)Cc2ccc(Cl)cc2)CCN1C(=O)Cc1csc2ccccc12 (stereo not shown)  0.01 to 100 nM
2  CC1(C(=O)N(CCC(=O)O)Cc2cccc(Cl)c2)CCN1C(=O)Cc1csc2ccccc12 (stereo not shown)   101 to 500 nM
3  O=C(O)CCCN(Cc1cccc(Cl)c1)C(=O)C1(Cc2cccc(C(F)(F)F)c2)CCN1C(=O)c1csc2ccccc12 (stereo not shown)       > 1000 nM
4  Cc1cccc(CC2(C(=O)N(CCCC(=O)O)Cc3cccc(Cl)c3)CCN2C(=O)c2csc3ccccc23)c1 (stereo not shown)  501 to 1000 nM

Supply IC50 value. Item: Cc1cc(C)cc(CC(=O)N2CCC2(C)C(=O)N(CC(=O)NS(C)(=O)=O)Cc2ccc(Cl)cc2)c1 (stereo not shown) > 1000 nM

Supply IC50 value. Item: Cc1cccc(CNC(=O)C2(C)CCN2C(=O)Cc2ccc(Cl)cc2Cl)c1 (stereo not shown) > 1000 nM

Supply IC50 value. Item: CC(C)C1(C(=O)N(CCCC(=O)NS(C)(=O)=O)Cc2cccc(Cl)c2)CCN1C(=O)c1csc2ccccc12 (stereo not shown) 101 to 500 nM

----------
# assayed_target: GPR43 (Homo sapiens, UniProt O15552)
# Construct: expressed in transfected cells
# measurement_protocol: Calcium mobilization assay without probenecid
# Type: cell-based
# condition_set: GPR43 stably expressing cells, triggered with sodium acetate at EC80, read-out: GPR43 assay without probenicid IC50
pIC50: −log10 of the molar value.
assay_metric: pIC50

Please review the following examples before continuing.
> print(dat)
                                   compound         value
1  Cc1cc(C)cc(CC(=O)N2CCC2(C)C(=O)N(CC(=O)NS(C)(=O)=O)Cc2ccc(Cl)cc2)c1 (stereo not shown)  6.00 to 6.30
2  Cc1cc(C)cc(CC(=O)N2CCC2(C)C(=O)N(Cc2ccc(Cl)cc2)CC(C)O)c1 (stereo not shown)  6.00 to 6.30
3  COC(=O)CCCN(Cc1ccc(Cl)cc1)C(=O)C1(C)CCN1C(=O)Cc1cc(C)cc(C)c1 (stereo not shown)  6.30 to 7.00

Provide measured pIC50 on GPR43 (Homo sapiens, UniProt O15552) for CN(Cc1ccc(Cl)cc1)C(=O)C1(C)CCN1C(=O)Cc1csc2ccccc12 (stereo not shown) please. 6.30 to 7.00

----------
# assayed_target: GPR43 (Homo sapiens)
# Construct: expressed in transfected cells
# measurement_protocol: Calcium mobilization assay with probenecid
# Type: cell-based
# condition_set: GPR43 stably expressing cells; triggered with sodium acetate at EC80; 2.5 mM probenecid; read-out: GPR43 assay with probenicid IC50
pIC50: −log10 of the molar value.
assay_metric: pIC50

Please review the following examples before continuing.
> print(dat)
                                   compound          value
1  COC(=O)CCN(Cc1ccc(Cl)cc1)C(=O)C1(C)CCN1C(=O)c1csc2ccccc12 (stereo not drawn) [Compound 151]   6.30 to 7.00
2  Cc1cc(C)cc(CC(=O)N2CCC2(C)C(=O)N(CCCC(=O)O)Cc2cccc(Cl)c2)c1 (stereo not drawn) [Compound 161]         < 6.00
3  CC1(C(=O)N(CCCC(=O)O)Cc2ccc(Cl)cc2)CCN1C(=O)Oc1csc2ccccc12 (stereo not drawn) [Compound 211]  7.00 to 11.00
4  C[C@@H](c1ccc(Cl)cc1)N(CCCC(=O)O)C(=O)[C@@]1(C)CCN1C(=O)c1csc2ccccc12 [Compound 198]  7.00 to 11.00
5  Cc1cc(C)cc(CC(=O)N2CCC2(C)C(=O)N(CCCS(=O)(=O)N2CCN(C)CC2)Cc2ccc(Cl)cc2)c1 (stereo not drawn) [Compound 180]   6.00 to 6.30

Supply pIC50 value. Item: CC1(C(=O)N(CCCC(=O)N2CCOCC2)Cc2ccc(Cl)cc2)CCN1C(=O)c1csc2ccccc12 (stereo not drawn) [Compound 139] < 6.00

Supply pIC50 value. Item: CC1(C(=O)Nc2ccc(Cl)cc2)CCN1C(=O)Cc1ccc(Cl)cc1Cl (stereo not drawn) [Compound 4] < 6.00

Supply pIC50 value. Item: CN(Cc1ccc(Cl)cc1)C(=O)C1(C)CCN1C(=O)Cc1ccc(F)c(F)c1 (stereo not drawn) [Compound 12] < 6.00

Supply pIC50 value. Item: COc1cccc(CC2(C(=O)N(CCCC(=O)NS(C)(=O)=O)Cc3cccc(Cl)c3)CCN2C(=O)c2csc3ccccc23)c1 (stereo not drawn) [Compound 242] 6.00 to 6.30

Supply pIC50 value. Item: CSc1ccc(OC(=O)N2CCC2(C)C(=O)N(CCCC(=O)O)Cc2ccc(Cl)cc2)cc1 (stereo not drawn) [Compound 227] 6.00 to 6.30

Supply pIC50 value. Item: CCC1(C(=O)N(CCCS(N)(=O)=O)Cc2ccc(Cl)cc2)CCN1C(=O)c1csc2ccccc12 (stereo not drawn) [Compound 216] 6.30 to 7.00

Supply pIC50 value. Item: CC1(C(=O)N(CCCC(=O)O)Cc2cccc(Cl)c2)CCN1C(=O)Cc1csc2ccccc12 (stereo not drawn) [Compound 148] 6.00 to 6.30

Supply pIC50 value. Item: CNS(=O)(=O)CCCN(Cc1ccc(Cl)cc1)C(=O)C1(C)CCN1C(=O)c1csc2ccccc12 (stereo not drawn) [Compound 186] 6.30 to 7.00

Supply pIC50 value. Item: Cc1cc(C)cc(CC(=O)N2CCC2(C)C(=O)N(CC(=O)N2CCOCC2)Cc2ccc(Cl)cc2)c1 (stereo not drawn) [Compound 83] < 6.00

Supply pIC50 value. Item: Cc1cc(C)cc(CC(=O)N2CCC2(C)C(=O)N(CCCC(=O)N2CCN(C)CC2)Cc2ccc(Cl)cc2)c1 (stereo not drawn) [Compound 124] 6.00 to 6.30

Supply pIC50 value. Item: CCOc1cc(CCN(Cc2ccc(Cl)cc2)C(=O)C2(C)CCN2C(=O)Cc2cc(C)cc(C)c2)nn1C (stereo not drawn) [Compound 118] < 6.00

Supply pIC50 value. Item: CC1(C(=O)N(CCC(=O)O)Cc2ccc3cn[nH]c3c2)CCN1C(=O)c1csc2ccccc12 (stereo not drawn) [Compound 188] 6.00 to 6.30

Supply pIC50 value. Item: CC(C)C1(C(=O)N(CCCC(=O)O)Cc2cccc(Cl)c2)CCN1C(=O)c1csc2ccccc12 (stereo not drawn) [Compound 203] 7.00 to 11.00

Supply pIC50 value. Item: CN(Cc1ccc(Cl)cc1)C(=O)C1(C)CCN1C(=O)Cc1ccc(F)c2ccccc12 (stereo not drawn) [Compound 106] < 6.00

Supply pIC50 value. Item: Cc1cc(C)cc(CC(=O)N2CCC2(C)C(=O)N(Cc2ccc(Cl)cc2)[C@H](C)C(=O)O)c1 (stereo partly drawn) [Compound 74] < 6.00

Supply pIC50 value. Item: Cc1cc(C)cc(CC(=O)N2CCC2(C)C(=O)N(CC(=O)O)Cc2ccc3cn[nH]c3c2)c1 (stereo not drawn) [Compound 110] 6.30 to 7.00

Supply pIC50 value. Item: COC(=O)CCN(Cc1ccc(Cl)cc1)C(=O)C1(C)CCN1C(=O)Cc1coc2ccccc12 (stereo not drawn) [Compound 150] 6.30 to 7.00

Supply pIC50 value. Item: CC1(C(=O)NCc2ccc(C(F)(F)F)cc2)CCN1C(=O)Cc1ccc(Cl)cc1Cl (stereo not drawn) [Compound 44] < 6.00

----------
# assayed_target: GPR43 (Homo sapiens)
# Construct: expressed in transfected cells
# measurement_protocol: Calcium mobilization assay without probenecid
# Type: cell-based
# condition_set: GPR43 stably expressing cells, triggered with sodium acetate at EC80, read-out: GPR43 assay without probenicid IC50
# IC50 per entry

> print(dat)
                                   molecule  assay.metric           value
1  Cc1cc(C)cc(CC(=O)N2CCC2(C)C(=O)N(CC(N)=O)Cc2ccc(Cl)cc2)c1 (centres unmarked) [Compound 75]          IC50   101 to 500 nM
2  Cc1ccccc1-c1ccc(CC(=O)N2CCC2(C)C(=O)N(C)Cc2ccc(Cl)cc2)cc1 (centres unmarked) [Compound 25]          IC50       > 1000 nM
3  CN(Cc1ccc(Cl)cc1)C(=O)C1(C)CCN1C(=O)Cc1ccccc1OCc1ccccc1 (centres unmarked) [Compound 16]          IC50       > 1000 nM
4  Cc1ccc(CNC(=O)C2(C)CCN2C(=O)Cc2ccc(Cl)cc2Cl)cc1 (centres unmarked) [Compound 43]          IC50       > 1000 nM
5  CC1(C(=O)N(CCCC(=O)O)Cc2ccc(Cl)cc2)CCN1C(=O)Cc1csc2ccccc12 (centres unmarked) [Compound 89]          IC50  0.01 to 100 nM
6  CN(Cc1ccc(Cl)cc1)C(=O)C1(C)CCN1C(=O)Cc1csc2ccc(Cl)cc12 (centres unmarked) [Compound 92]          IC50       > 1000 nM

Provide measured IC50 on GPR43 (Homo sapiens) for CN(Cc1ccc(C(F)(F)F)cc1)C(=O)C1(C)CCN1C(=O)Cc1ccc(Cl)cc1Cl (centres unmarked) [Compound 45] please. > 1000 nM

Provide measured IC50 on GPR43 (Homo sapiens) for CC1(C(=O)N(CCO)Cc2ccc(Cl)cc2)CCN1C(=O)Cc1csc2ccccc12 (centres unmarked) [Compound 67] please. 0.01 to 100 nM

Provide measured IC50 on GPR43 (Homo sapiens) for Cc1ccc2scc(CC(=O)N3CCC3(C)C(=O)N(C)Cc3ccc(Cl)cc3)c2c1 (centres unmarked) [Compound 93] please. > 1000 nM

# credit: patent US8759334B2
